# Lookup of reported log10 of TGI keyed by entry
test system: SN12C renal; assay: NCI tumour cell line growth inhibition, 48 h
In our notation, the value equals log10 of TGI in µM.

Before answering, review these 5 worked examples.
>>> print(df.to_string())
                               query_smiles      endpoint  readout_number
0  Cc1cc(C)nc(NS(=O)(=O)c2ccc(Nc3c4ccc(Cl)cc4nc4c(C(=O)Nc5ccc(S(N)(=O)=O)cc5)cccc34)cc2)n1  log10 of TGI            1.48
1     Fc1ccc(Nc2nc3nonc3nc2Nc2ccc(F)cc2)cc1  log10 of TGI            0.48
2         COc1ccc(Nc2c3ccccc3nc3ccccc23)cc1  log10 of TGI            1.11
3  COC(=O)C1=C(C)NC(C)=C(C(=O)OC)C1/C=C(Cl)/C=C/c1ccccc1  log10 of TGI            1.62
4  Cc1cccc2c(=O)c3c(sc12)c(NCCNCCO)nc1ccccc13  log10 of TGI            0.48

// sample CCOC(=O)Cc1nc2sc(S(N)(=O)=O)nn2c1Br , its log10 of TGI was 1.72

// sample CCCCCCCCCCCCCC[n+]1ccc2c(C)c3c(c(C)c2c1)c1cc(O)ccc1n3CC , its log10 of TGI was 0.12

// sample CN(C)c1ccccc1CN1CCCN(Cc2ccccc2N(C)C)C1c1ccncc1 , its log10 of TGI was 1.79

// sample Oc1[nH]c2ccc(Cl)cc2c1/C=c1/ccc2c(c1)N=C(c1ccc(F)cc1)N=2 , its log10 of TGI was 1.01

---

system: UACC-62 melanoma; assay: NCI tumour cell line growth inhibition, 48 h; in the data active means GI50 below about 0.43 µM; inactive means the rest
Can you answer with just one of these options? YES = active, NO = inactive

>>> print(df.to_string())
                                   compound       test_target  answer_label
0  COc1cc2c3c(n(CCCI)c(=O)c2cc1OC)-c1cc2c(cc1C3=O)OCO2  UACC-62 melanoma           YES

Q: Write down the call the test reported for this compound. Item: CN1c2ccccc2C(C)(C)C12C=Cc1cc(O)ccc1O2 (stereo not drawn)
Result: NO

Q: Write down the call the test reported for this compound. Item: CN(C)c1ccc(C(Cc2ccc3ccccc3n2)Cc2ccc3ccccc3n2)cc1
Result: NO

Q: Write down the call the test reported for this compound. Item: Cc1c(COc2cc(OCc3cccc(C#N)c3)c(CN3C[C@H](O)C[C@@H]3C(=O)O)cc2Cl)cccc1-c1ccc2c(c1)OCCO2
Result: NO

---

test system: UO-31 renal; test: NCI tumour cell line growth inhibition, 48 h
Endpoint: TGI

In [3]: df
Out[3]:
                                   compound  test_target  endpoint    result
0                O=C1CCCC/C1=C\c1ccc(Br)cc1  UO-31 renal       TGI   29.6 µM
1             CCc1ccc2nc(-c3ccc(O)cc3)sc2c1  UO-31 renal       TGI   24.4 µM
2  CCCCNC(=S)Nc1nc(C(=O)NNC(=S)NC2CCCCC2)cs1  UO-31 renal       TGI  > 100 µM
3  COc1cc2c3c(n(CCCI)c(=O)c2cc1OC)-c1cc2c(cc1C3=O)OCO2  UO-31 renal       TGI  > 100 µM
4  Cc1c(COc2cc(OCc3cccc(C#N)c3)c(CN3C[C@H](O)C[C@@H]3C(=O)O)cc2Cl)cccc1-c1ccc2c(c1)OCCO2  UO-31 renal       TGI   30.2 µM
5    N#Cc1c(N)nc(N2CCOCC2)c(C#N)c1-c1cccnc1  UO-31 renal       TGI  > 100 µM
6  O=c1[nH]c(=O)n(C2CC(O)C(CO)O2)cc1C1=NC1 (stereo unspecified)  UO-31 renal       TGI  > 100 µM
7       COC1(OC)CC(CO)(CNc2cc(Cl)nc(N)n2)C1  UO-31 renal       TGI  > 100 µM
8  O=C(Nc1ccccc1)NS(=O)(=O)c1ccc(-n2nc3c(c2-c2ccc(Cl)cc2)Cc2ccccc2-3)cc1  UO-31 renal       TGI  > 100 µM
9  CC1(CCCO)CCCCCCCCCC(C)(CCCO)C1=O (stereo unspecified)  UO-31 renal       TGI  > 100 µM

Response field TGI (UO-31 renal) for item COc1cc(C2C(C(=O)O)=C(COC(C)=O)Oc3cc4c(cc32)OCO4)cc(OC)c1OC (stereo unspecified) : > 100 µM

Response field TGI (UO-31 renal) for item CCOC(=O)Cc1nc2sc(S(N)(=O)=O)nn2c1Br : 29.4 µM
